# pEC50 annotations
molecular target: human FPR2 (Homo sapiens (Human)); assay: FPR2 cyclic adenosine monophosphate (cAMP) assay; details: CHO cells overexpressing human FPR2; forskolin 5 µM; inhibition of cAMP production; read-out: hFPR2 cAMP2 EC50
Sequence (P25090 whole entry): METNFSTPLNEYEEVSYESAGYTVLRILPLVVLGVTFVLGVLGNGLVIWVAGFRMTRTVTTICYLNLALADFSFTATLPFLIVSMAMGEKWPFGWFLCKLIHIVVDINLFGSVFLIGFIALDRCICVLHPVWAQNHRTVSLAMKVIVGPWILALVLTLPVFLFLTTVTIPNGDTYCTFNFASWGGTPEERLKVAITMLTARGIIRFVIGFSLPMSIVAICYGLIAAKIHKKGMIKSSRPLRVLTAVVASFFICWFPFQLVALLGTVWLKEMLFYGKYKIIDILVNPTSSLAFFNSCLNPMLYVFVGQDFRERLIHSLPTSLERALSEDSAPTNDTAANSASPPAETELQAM
Just so you know, pEC50 here is -log10 of the concentration in molar units; reply with that number alone.

Below, each entry is followed by its recorded pEC50 result.
- COc1cc(F)c([C@@H]2CN(c3cccc(C4CCN(C)CC4)n3)C(=O)[C@H]2NC(=O)c2ccc(OC(F)F)cc2)c(F)c1 [Example 525]: 8.85
- COc1cc(F)c([C@H]2[C@H](NC(=O)c3ccc(OC(F)F)cc3)C(=O)N(c3cccc(C4CCN(C)CC4)n3)[C@H]2C)c(F)c1: 8.85
- COc1cc(F)c([C@@H]2CN(c3c(C)ccn(C4CCN(C)C4)c3=O)C(=O)[C@H]2NC(=O)c2ccc(OC(F)F)cc2)c(F)c1 (stereo partly shown) [Example 508]: 8.19
- CNC(=O)C(C)Nc1ccnc(N2C[C@@H](c3c(F)cc(OC)cc3F)[C@H](NC(=O)c3ccc(Cl)cc3)C2=O)c1C(F)(F)F (stereo partly shown) [Example 290]: 8.07
- COCCn1ccc(C)c(N2C[C@@H](c3ccc(OC)cc3F)[C@H](NC(=O)c3ccc(Cl)cc3)C2=O)c1=O: 8.43
- COCC(C(=O)N(C)C)n1cccc(N2C[C@@H](c3c(F)cc(OC)cc3F)[C@H](NC(=O)c3ccc(OC(F)F)cc3)C2=O)c1=O (stereo partly shown) [Example 172]: 8.35
- COc1ccc([C@@H]2CN(c3c(C)ccn(C4CCC4)c3=O)C(=O)[C@H]2NC(=O)c2ccc(OC(F)F)cc2)cc1: 9.22
- COc1cc(F)c([C@@H]2CN(c3c(C)ccn(C(F)F)c3=O)C(=O)[C@H]2NC(=O)c2ccc(OC(F)F)cc2)c(F)c1: 8.40

Please give the documented pEC50 of O=C(N[C@@H]1C(=O)N(c2cccn(CCC(F)(F)F)c2=O)C[C@H]1c1ccc(Cl)cc1)c1ccc(OC(F)(F)F)cc1
8.72

Please give the documented pEC50 of COc1cc(F)c([C@@H]2CN(c3nc(NC4CCOC4)ccc3F)C(=O)[C@H]2NC(=O)c2ccc(OC(F)F)cc2)c(F)c1 (stereo partly shown) [Example 271]
8.11

Please give the documented pEC50 of COc1cc(F)c([C@@H]2CN(c3c(C)ccn(CC(F)F)c3=O)C(=O)[C@H]2NC(=O)c2ccc(OC(F)F)cc2)c(F)c1
8.60
